tested on: P388 murine leukemia cells, cyclophosphamide-resistant (/CP); assay: In vitro soft agar colony-forming cytotoxicity assay, cyclophosphamide-resistant P388 cells; format: cell-based, mouse; details: P388; 60 min
Assay readout: RF, resistance factor = ratio of LC99 in resistant/sensitive cells

[
  {
    "Compound": "O=P1(N(CCCl)CCCl)NC(OO)CC(c2cccnc2)O1 (stereo not shown)",
    "Assayed system": "P388 murine leukemia cells, cyclophosphamide-resistant (/CP)",
    "Numeric readout": 0.7
  },
  {
    "Compound": "CC(C)C1CC(OO)NP(=O)(N(CCCl)CCCl)O1 (stereo not shown)",
    "Assayed system": "P388 murine leukemia cells, cyclophosphamide-resistant (/CP)",
    "Numeric readout": 0.7
  },
  {
    "Compound": "O=[N+]([O-])c1ccc(C2CC(OO)NP(=O)(N(CCCl)CCCl)O2)cc1 (stereo not shown)",
    "Assayed system": "P388 murine leukemia cells, cyclophosphamide-resistant (/CP)",
    "Numeric readout": 0.4
  },
  {
    "Compound": "O=P1(N(CCCl)CCCl)NC(OO)CC(CCc2ccccc2)O1 (stereo not shown)",
    "Assayed system": "P388 murine leukemia cells, cyclophosphamide-resistant (/CP)",
    "Numeric readout": 0.6
  },
  {
    "Compound": "Cc1ccc(C2CC(OO)NP(=O)(N(CCCl)CCCl)O2)cc1 (stereo not shown) [Compound 6, 4-Hydroperoxy-6-p-tolylcyclophosphamide]",
    "Assayed system": "P388 murine leukemia cells, cyclophosphamide-resistant (/CP)",
    "Numeric readout": 1.0
  },
  {
    "Compound": "CC1CC(OO)NP(=O)(N(CCCl)CCCl)O1 (stereo not shown) [Compound 1, 4-hydroperoxy-6-methylcyclophosphamide]",
    "Assayed system": "P388 murine leukemia cells, cyclophosphamide-resistant (/CP)",
    "Numeric readout": 2.7
  },
  {
    "Compound": "O=P1(N(CCCl)CCCl)NC(OO)CCO1 (stereo not shown) [Ref, reference compound]",
    "Assayed system": "P388 murine leukemia cells, cyclophosphamide-resistant (/CP)",
    "Numeric readout": 10
  },
  {
    "Compound": "O=P1(N(CCCl)CCCl)NC(OO)CC(c2ccccc2)O1 (stereo not shown) [Compound 4, 4-hydroperoxy-6-phenylcyclophosphamide]",
    "Assayed system": "P388 murine leukemia cells, cyclophosphamide-resistant (/CP)",
    "Numeric readout": 0.6
  },
  {
    "Compound": "O=P1(N(CCCl)CCCl)NC(OO)CC(c2ccncc2)O1 (stereo not shown)",
    "Assayed system": "P388 murine leukemia cells, cyclophosphamide-resistant (/CP)",
    "Numeric readout": 0.6
  },
  {
    "Compound": "O=P1(N(CCCl)CCCl)NC(OO)CC(c2ccc(F)cc2)O1 (stereo not shown)",
    "Assayed system": "P388 murine leukemia cells, cyclophosphamide-resistant (/CP)",
    "Numeric readout": 0.5
  }
]
